Target: T1, FLAG-tagged mouse Ang2 (mouse, UniProt O35608 19-496)
T1 construct: N-terminally FLAG-tagged, conditioned medium of HEK293T cells; also called mAng2; FLAG-mAng2
T1 sequence: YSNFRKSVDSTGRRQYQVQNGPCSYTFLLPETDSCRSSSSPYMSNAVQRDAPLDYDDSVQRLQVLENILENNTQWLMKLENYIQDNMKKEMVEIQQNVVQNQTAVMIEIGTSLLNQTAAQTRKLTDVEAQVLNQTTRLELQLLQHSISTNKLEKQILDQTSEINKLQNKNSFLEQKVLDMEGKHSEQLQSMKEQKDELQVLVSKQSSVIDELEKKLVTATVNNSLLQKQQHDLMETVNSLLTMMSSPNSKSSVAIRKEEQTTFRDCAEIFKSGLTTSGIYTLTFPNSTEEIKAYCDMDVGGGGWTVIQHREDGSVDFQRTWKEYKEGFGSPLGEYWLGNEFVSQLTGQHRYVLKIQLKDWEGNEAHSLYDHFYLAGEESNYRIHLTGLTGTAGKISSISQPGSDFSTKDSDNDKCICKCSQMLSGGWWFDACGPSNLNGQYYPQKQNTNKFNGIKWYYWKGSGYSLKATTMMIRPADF
Experiment: competition ELISA: FLAG-mAng2 binding to coated mTie2-Fc
pIC50: −log10 of the molar value.
reportedProperty: pIC50

- binder: "VHH 00027 (VHH, not shown: small tags and cut ends, Variant of 28D10 carrying C50S/S53N and Q108L) VHH: EVQLVESGGGLVQAGGSLRLSCAASGFTLDDYAIGWFRQAPGKEREGVSSIRDNDGSTYYADSVKGRFTISSDNDKNTVYLQMNSLKPEDTAVYYCAAVPAGRLRFGEQWYPLYEYDAWGQGTLVTVSS"
  number: 8.70
- binder: "VHH 00053 (VHH, not shown: small tags and cut ends) VHH: EVQLVESGGGLVQPGGSLRLSCAASGFTLDDYAIGWFRQAPGKEREGVSSIRDNDGSTYYADSVKGRFTISRDNDKNTVYLQMNSLRPEDTAVYYCAAVPAGRLRFGEQWYPLYEYDAWGQGTLVTVSS"
  number: 7.44
- binder: "VHH 00055 (VHH, not shown: small tags and cut ends) VHH: EVQLVESGGGLVQAGGSLRLSCAASGFTLDDYAIGWFRQAPGKEREGVSSIRDNGGSTYYADSVKGRFTISSDNDKNTVYLQMNSLKPEDTAVYYCAAVPAGRLRFGEQWYPLYEYDAWGQGTLVTVSS"
  number: 8.34
- binder: "VHH 00042 (VHH, not shown: small tags and cut ends) VHH: EVQLVESGGGLVQPGGSLRLSCAASGFTLDDYAIGWFRQAPGKEREGVSSIRDNDGSTYYADSVKGRFTISSDNSKNTVYLQMNSLRPEDTAVYYCAAVPAGRLRFGEQWYPLYEYDAWGQGTLVTVSS"
  number: 8.72

Recorded values, source patent US20230203146A1.
